# TEST: AUC (0 to t) in Sprague-Dawley rat at 10 mg/kg, po
# Type: ADME, organism-based
# Design: dose 10 mg/kg, route oral
# CONDITION_LABEL: plasma
MEASUREMENT_NAME: AUC(0-t) (ng·h/mL)
Response body: numeric value in ng·h/mL, unit text excluded.

- COMPOUND: "CC(C)(C)n1nnnc1C(Nc1ccc(Nc2ccnc3cc(Cl)ccc23)cc1)c1ccc(Br)cc1 (configuration not stated)"
  AUC(0-t) / ng·h/mL: 704

Value of AUC(0-t) reported for the compound CC(C)(C)n1nnnc1C(Nc1ccc(Nc2ccnc3cc(Cl)ccc23)cc1)c1ccc(Cl)cc1 (configuration not stated) is 593

* * *

Readings of Tmax for the listed compounds
# TEST: Tmax in Sprague-Dawley rat at 10 mg/kg, po
# Format: ADME, organism-based
# Set-up: dose 10 mg/kg, route oral
# CONDITION_LABEL: in vivo
# output: bare number, implied unit h

- COMPOUND: "CC(C)(C)n1nnnc1C(Nc1ccc(Nc2ccnc3cc(Cl)ccc23)cc1)c1ccc(Br)cc1 (configuration not stated)"
  Tmax, h: 1.5

Field Tmax (entry CC(C)(C)n1nnnc1C(Nc1ccc(Nc2ccnc3cc(Cl)ccc23)cc1)c1ccc(Cl)cc1 (configuration not stated) ) reads 2

* * *

# TEST: Clearance in Sprague-Dawley rat at 10 mg/kg, po
# Format: ADME, organism-based
# Design: dose 10 mg/kg, route oral
# CONDITION_LABEL: in vivo
MEASUREMENT_NAME: CL/F
# include the unit after the value

- COMPOUND: "CC(C)(C)n1nnnc1C(Nc1ccc(Nc2ccnc3cc(Cl)ccc23)cc1)c1ccc(Br)cc1 (configuration not stated)"
  CL/F: "32.3 mL/min"

Notebook: CC(C)(C)n1nnnc1C(Nc1ccc(Nc2ccnc3cc(Cl)ccc23)cc1)c1ccc(Cl)cc1 (configuration not stated) , CL/F read as 61.7 mL/min

* * *

# TEST: Elimination half life in Sprague-Dawley rat at 10 mg/kg, po
# Format: ADME, organism-based
# Parameters: dose 10 mg/kg, route oral
# CONDITION_LABEL: in vivo, read-out: beta t1/2 (converted)
Readings of half-life for the listed compounds

For record CC(C)(C)n1nnnc1C(Nc1ccc(Nc2ccnc3cc(Cl)ccc23)cc1)c1ccc(Cl)cc1 (configuration not stated) the listed half-life is 5.27 h

Summary for this compound, CC(C)(C)n1nnnc1C(Nc1ccc(Nc2ccnc3cc(Cl)ccc23)cc1)c1ccc(Br)cc1 (configuration not stated) : half-life is 22.6 h

* * *

# TEST: Clearance in Sprague-Dawley rat at 5 mg/kg, po
# Assay type: ADME, organism-based
# Parameters: dose 5 mg/kg, route oral
# CONDITION_LABEL: in vivo
MEASUREMENT_NAME: CL/F (mL/min)
Report the value in mL/min with no unit label.

get_value(item= CCN(CC)CCCC(C)Nc1ccnc2cc(Cl)ccc12 (stereo unspecified) , readout=CL/F) returns 2.5

* * *

# Test system: Plasmodium yoelii
# TEST: Antimalarial activity against chloroquine-resistant Plasmodium yoelii N-67 infected in Swiss mouse assessed as suppression of parasitaemia level at 50 mg/kg, ip qd for 4 days relative to control
# Assay type: functional
# CONDITION_LABEL: route intraperitoneal
MEASUREMENT_NAME: Activity (%)
Give just the number in %; leave the unit off.

- MOLECULE: "Clc1ccc(C(Nc2ccc(Nc3ccnc4cc(Cl)ccc34)cc2)c2nnnn2C2CCCCC2)cc1 (centres undefined)"
  TARGET_UNDER_TEST: "Plasmodium yoelii"
  MEASUREMENT_UNITS: "%"
  Activity: 20.43
- MOLECULE: "CC(C)(C)n1nnnc1C(Nc1ccc(Nc2ccnc3cc(Cl)ccc23)cc1)c1ccc(Cl)cc1 (centres undefined)"
  TARGET_UNDER_TEST: "Plasmodium yoelii"
  MEASUREMENT_UNITS: "%"
  Activity: 99.99

CC(C)(C)n1nnnc1C(c1ccc(Cl)cc1)N1CCN(c2ccnc3cc(Cl)ccc23)CC1 (centres undefined) yielded Activity of 73.91

For reference, reported Activity for COc1ccc(C(Nc2ccc(Nc3ccnc4cc(Cl)ccc34)cc2)c2nnnn2C(C)(C)C)cc1OC (centres undefined) stands at 26.91

Memo: Cc1ccc(C(Nc2ccc(Nc3ccnc4cc(Cl)ccc34)cc2)c2nnnn2C(C)(C)C)cc1 (centres undefined) , reported Activity: 21.3

The molecule CC(C)(C)n1nnnc1C(Nc1ccc(Nc2ccnc3cc(Cl)ccc23)cc1)c1ccc(Cl)c(Cl)c1 (centres undefined) showed Activity equal to 71.49

CC(C)(C)n1nnnc1C(Nc1ccc(Nc2ccnc3cc(Cl)ccc23)cc1)c1ccc(Br)cc1 (centres undefined) has a reported Activity of 99.99

Recorded Activity (molecule CC(C)(C)n1nnnc1C(Nc1ccc(Nc2ccnc3cc(Cl)ccc23)cc1)c1cccc2ccccc12 (centres undefined) ): 57.03

Reported Activity of Clc1ccc2c(Nc3ccc(NC(c4ccc(Br)cc4)c4nnnn4C4CCCCC4)cc3)ccnc2c1 (centres undefined) : 69.56

* * *

# Tested on: Plasmodium falciparum
# TEST: Antimalarial activity against chloroquine-resistant Plasmodium falciparum K1 after 72 hrs by MSF assay
# Type: functional, organism-based
# CONDITION_LABEL: K1, 72 h
IC50 values for the compounds below.
The answer is to be given in nM; state only the numeric part.

Consider the worked cases shown below.
- COMPOUND: "COc1ccc(C(Nc2ccc(Nc3ccnc4cc(Cl)ccc34)cc2)c2nnnn2C(C)(C)C)cc1OC (centres undefined)"
  IC50 [nM]: 76.2
- COMPOUND: "COc1ccc(C(Nc2ccc(Nc3ccnc4cc(Cl)ccc34)cc2)c2nnnn2C(C)(C)C)cc1 (centres undefined)"
  IC50 [nM]: 384
- COMPOUND: "CC(C)(C)n1nnnc1C(Nc1ccc(Nc2ccnc3cc(Cl)ccc23)cc1)c1ccc(Cl)cc1 (centres undefined)"
  IC50 [nM]: 143

We next turn to a different compound, shown below.
Lab book: IC50 of COc1cc(C(Nc2ccc(Nc3ccnc4cc(Cl)ccc34)cc2)c2nnnn2C(C)(C)C)cc(OC)c1OC (centres undefined) noted as 573

The measured values listed here are drawn from ChEMBL document CHEMBL2413038.
